# MEASURED_TARGET: mV523I (mCOX-2 mutant) (Mus musculus, UniProt Q05769, V509I)
# Sequence (Q05769 18-604 V509I): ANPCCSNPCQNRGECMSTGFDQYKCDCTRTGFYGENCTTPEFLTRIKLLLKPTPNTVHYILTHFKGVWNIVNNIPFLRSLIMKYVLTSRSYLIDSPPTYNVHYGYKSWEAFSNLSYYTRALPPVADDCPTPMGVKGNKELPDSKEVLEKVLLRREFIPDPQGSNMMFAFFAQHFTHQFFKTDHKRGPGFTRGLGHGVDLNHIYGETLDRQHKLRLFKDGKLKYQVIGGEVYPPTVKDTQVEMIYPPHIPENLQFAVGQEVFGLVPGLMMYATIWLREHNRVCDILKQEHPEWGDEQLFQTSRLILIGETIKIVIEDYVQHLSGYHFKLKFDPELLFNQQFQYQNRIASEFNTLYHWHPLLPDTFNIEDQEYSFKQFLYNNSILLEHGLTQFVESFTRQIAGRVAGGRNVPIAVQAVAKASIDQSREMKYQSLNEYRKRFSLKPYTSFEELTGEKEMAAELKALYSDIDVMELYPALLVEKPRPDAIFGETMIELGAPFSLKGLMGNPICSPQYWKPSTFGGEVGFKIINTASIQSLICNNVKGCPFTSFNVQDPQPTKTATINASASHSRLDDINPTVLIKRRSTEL
# ASSAY_OVERVIEW: COX inhibition screening assay, mCOX-2 V523I mutant
pIC50: −log10 of the molar value.
RECORDED_METRIC: pIC50

Exam item: # pIC50 lookup, item COc1ccc2c(c1)c(CC(=O)O)c(C(F)(F)F)n2C(=O)c1ccc(Cl)cc1 [CF3–indomethacin]
Marked response: < 5.40
